- System: CAKI-1 renal
- ASSAY_NAME: NCI-60 one-dose screen, 48 h
- CONDITION_CONTEXT: 10 µM unless noted
The panel holds about 83,000 compounds, 20% with a hit somewhere; the sample as a whole holds those more often. Activity calls are given as the source filed them. Rule for the calls: active = growth percent below 10; inactive = the rest.
I would appreciate it if you answered using one of these outcomes: active, inactive

CNS(=O)(=O)c1ccc(Nc2ccc(C(F)(F)F)cc2)c(-c2cn(C)cn2)c1
inactive

Data request: Which result was noted for this molecule in the test: C=C1CC[C@@H]2[C@]3(C)COC(c4cn[nH]c4-c4ccccc4)O[C@@H]3CC[C@@]2(C)[C@@H]1C/C=C1/C(=O)OCC1O (some centres undefined)
Data returned: inactive

Data request: What did the test return for COC1=C[C@]23CCC(=O)N2CCc2cc4c(cc2[C@@H]3[C@@H]1OC(=O)[C@H](C)O)OCO4 ?
Data returned: inactive

Data request: GET /call?item= CC1CCCCN1CCCNC(=O)N/C(N)=N/c1nc2ccccc2s1 (centres undefined) returns the recorded outcome of this test.
Data returned: inactive

Data request: Status in this test for CC(C)Sc1nc(NCCc2c[nH]c3ccccc23)c(C#N)c(-c2ccc(F)cc2)n1 ?
Data returned: inactive

Data request: Hi, do you know how O=C(Nc1ccc(C(F)(F)F)cc1)Nc1ccc2oc(=O)ccc2c1 came out in this test?
Data returned: inactive

Data request: Recorded call for Nc1nc(C(F)(F)F)cs1 ?
Data returned: inactive

Data request: In this assay, the call recorded for N#Cc1ccc(/C=N/NC(=O)c2[nH]c3ccc(Br)cc3c2-c2ccccc2)o1 was what?
Data returned: inactive

Data request: Which outcome was entered for the molecule Cc1ccc(C2=NN(c3nc(-c4cc5ccccc5oc4=O)cs3)C(c3ccc(C)cc3)C2)cc1 (centres undefined) in this test?
Data returned: inactive

Data request: Fill in: this test's call for CCOC(=O)C1=C(N)N(c2ccccc2)C2=C(C(=O)CC(C)(C)C2)C1c1ccccc1Cl (centres undefined) is ___
Data returned: inactive

----------
The compounds listed here are annotated with their growth.
- System: NCI-H460 lung
- ASSAY_NAME: NCI-60 one-dose screen, 48 h (100 = growth as untreated, 0 = no growth, -100 = all killed)
- CONDITION_CONTEXT: 10 µM unless noted
Compounds without any hit were thinned out: in the full panel of roughly 83,000, 20% have a hit.
Numeric only. Scale: %

Known results for compounds:
COc1ccccc1/C=C/C(=O)c1ccc(OC)c(S(N)(=O)=O)c1
5.83
C=C1CC[C@@H]2[C@]3(C)COC(c4cn[nH]c4-c4ccc(OC)cc4)O[C@@H]3CC[C@@]2(C)[C@@H]1C/C=C1/C(=O)OCC1O (some centres undefined)
-49.6
COc1cc2c(c(OC)c1OC)C(=O)CC(c1cccc(NC(=O)c3cc(N)ccc3Cl)c1)O2 (centres undefined)
67.2

Now for the compound whose growth we want.
Data request: Determine from records and report growth for COc1ccc(-c2ccc(SCC(=O)NCCc3ccc(S(N)(=O)=O)cc3)nn2)cc1
Data returned: 107

----------
- Tested on: SN12C renal
- ASSAY_NAME: NCI-60 one-dose screen, 48 h (100 = growth as untreated, 0 = no growth, -100 = all killed)
- CONDITION_CONTEXT: 10 µM unless noted
This is part of a sample that, as a whole, favours compounds with a hit. Of some 83,000 tested, about 20% had one in any assay.
Form field: growth (one value per entry).
Quick note: give the figure in %, leave out the unit.

See these solved cases before continuing.
Cn1cc(-c2nnc(N)nc2-c2c[nH]c3ccc(Br)cc23)c2cc(Br)cnc21
63
CCN(CC)c1ccc(/C=N/Nc2nc(-c3ccc(Br)cc3)cs2)c(O)c1
23.1
N#Cc1c(-c2ccccc2Cl)cc(-c2ccc3ccccc3c2)[nH]c1=O
0.758
Cc1ccc(S(=O)(=O)c2nc(S(=O)(=O)c3ccc(C)cc3)c(N3CCN(C)CC3)s2)cc1
46.3
Cc1cc(C)cc(C(=O)Nc2cccc(-c3cn(-c4ccc(S(N)(=O)=O)cc4)nn3)c2)c1
32.6

Data request: Please respond with reported growth (system SN12C renal) for COc1cccc(-c2nc(Nc3ccc(S(N)(=O)=O)cc3)c3ccccc3n2)c1 .
Data returned: 44.6

Data request: Consider the molecule COc1ccc(C(=O)/C=C/c2ccc(OCc3ccc(F)cc3)c(OC)c2)cc1OC tested on SN12C renal; state its growth.
Data returned: -1.58

Data request: State growth on SN12C renal. Entry: CN(C)c1nc(NCCNS(=O)(=O)c2ccc(C3=Nc4c(N)nc(N)nc4NC(c4ccc(F)cc4)C3)cc2)nc(Nc2ccc(F)cc2)n1 (stereo not given)
Data returned: 42.7

----------
- Test system: NCI-H522 lung
- ASSAY_NAME: NCI-60 one-dose screen, 48 h
- CONDITION_CONTEXT: 10 µM unless noted
- Procedure: Growth inhibition of the NCI-H522 human Non-Small Cell Lung tumor cell line is measured as a screen for anti-cancer activity. Cells are grown in 96 well plates and exposed to the test compound for 48 hours. Compounds are tested at a single concentration, which is 10^-5 M for most compounds. The reported endpoint is percent growth (GI% or GIPRCNT), where numbers from 0 - 100% represent growth inhibition, and numbers from -100% - 0 represent cell death. […]
Compounds without any hit were thinned out: in the full panel of roughly 83,000, 20% have a hit. Activity calls are given as the source filed them. How the source made its calls: active means growth percent below 10; inactive means the rest.
Outcomes you can answer with include only these: y (active), n (inactive)

COc1ccc(/C=C2\C(=N)N=C(SCc3nc4ccccc4[nH]3)NC2=O)cc1
n

Data request: What classification did Cc1c(C(=O)NNC(=O)c2ccc(Cl)cc2)nnn1-c1ccc(Cl)cc1 end up with in this test?
Data returned: n

Data request: Test call, this molecule: N#Cc1c(-c2cccc(Cl)c2Cl)cc(-c2c[nH]c3ccccc23)[nH]c1=O
Data returned: n

----------
Recorded growth, one value per entry.
- Tested on: 786-0 renal
- ASSAY_NAME: NCI-60 one-dose screen, 48 h (100 = growth as untreated, 0 = no growth, -100 = all killed)
- CONDITION_CONTEXT: 10 µM unless noted
The panel holds about 83,000 compounds, 20% with a hit somewhere; the sample as a whole holds those more often.
Give the value, in units of %, as a plain number.

COc1cccc(/C=C/C(=O)c2ccc(OC)c(S(N)(=O)=O)c2)c1
14.6

Data request: Retrieve growth measured for COc1ccc(C2(SCCNCc3cc(N(C)C)ccn3)c3ccccc3C=Cc3ccccc32)cc1 and print it.
Data returned: 23.5

Data request: Answer with reported growth of C=C1CC[C@@H]2[C@]3(C)COC(c4ccccc4)O[C@@H]3CC[C@@]2(C)[C@@H]1C/C=C1/C(=O)OCC1OC(C)=O (stereo partly specified)
Data returned: -95.6

----------
- Test system: OVCAR-8 ovarian
- ASSAY_NAME: NCI-60 one-dose screen, 48 h (100 = growth as untreated, 0 = no growth, -100 = all killed)
- CONDITION_CONTEXT: 10 µM unless noted
This is part of a sample that, as a whole, favours compounds with a hit. Of some 83,000 tested, about 20% had one in any assay.
OUTCOME_MEASURE: growth (%)
Unit % implied. Number only.

Consider the reported growth for these molecules:
CN1CCN(c2ccc3c(c2)nc(NNC(=O)c2ncccn2)c2cccn23)CC1
-4.43
C=C1CC[C@@H]2[C@]3(C)COC(c4ccccc4)O[C@@H]3CC[C@@]2(C)[C@@H]1C/C=C1/C(=O)OCC1OC(C)=O (stereo partly specified)
-64.9
NS(=O)(=O)c1ccc(NNC(=O)CCC(=O)c2ccccc2)cc1
101
Clc1ccc(-c2ccc(OCCCN3CCN(c4ccncc4)CC3)cc2)cc1
86.3
N#Cc1c(-c2ccccc2Cl)cc(-c2ccc3ccccc3c2)[nH]c1=O
12.2

Would you kindly look at the next entry?
Data request: Using the record for CC(=O)Nc1cccc(Nc2nc(NCc3ccccc3)c3ccccc3n2)c1 , state its measured growth.
Data returned: -73.6

----------
- Test system: HS 578T breast
- ASSAY_NAME: NCI-60 one-dose screen, 48 h (100 = growth as untreated, 0 = no growth, -100 = all killed)
- CONDITION_CONTEXT: 10 µM unless noted
The panel holds about 83,000 compounds, 20% with a hit somewhere; the sample as a whole holds those more often.
Parameter: growth. Scope: all listed entries.
Respond numerically; units are % and should not be typed.

Completed entries (count: 4):
CN1CCN(c2ccc3c(c2)nc(NNC(=O)c2ncccn2)c2cccn23)CC1
26.5
COc1c(F)ccc(C(=O)Nc2ccc3nc(NC(=O)C4CCCN(S(=O)(=O)c5ccc(Br)c(F)c5)C4)sc3c2)c1F (configuration not stated)
72.8
O=C(Cn1nc(-c2ccccc2)ccc1=O)N/N=C/c1ccc(N2CCOCC2)cc1
86.6
Cn1cc(-c2nc(N)nnc2-c2c[nH]c3ccc(F)cc23)c2cc(Br)cnc21
35.8

Data request: Return growth for the following compound: COc1cc2c(c(OC)c1OC)C(=O)CC(c1cccc(NC(=O)c3cccc([N+](=O)[O-])c3)c1)O2 (configuration not stated)
Data returned: 25.1

Data request: Provide measured growth value, entry: CC(C)c1sc(NC(=O)c2cc(NC(=O)c3cc(NC(=O)c4cscn4)cn3C)cn2C)nc1C(=O)NCCCN(C)C
Data returned: 23.3

Data request: Identify measured growth corresponding to COc1ccc2oc3c4[nH]c5ccccc5c4c4c(c3c2c1)C(=O)N(C(=O)OC(C)(C)C)C4=O
Data returned: -1.85
